subject.of.test: T1, Siglec-7-ECD (human, UniProt Q9Y286 19-353)
T1 construct: also called p75; AIRM
assay: monovalent Fab; bio-layer interferometry (ForteBio) per Methods
pKd: −log10 of the molar value.
Listed here are binders together with their documented pKd.
property: pKd

binder="humanized 16H11-derived Fab, VH AK417-17 / VL AK424-1 (Fab, V domains shown, Measured as monovalent Fab; also called No. 7) VH: QVQLVQSGAEVKKPGSSVKVSCKASGYDFSNFWMNWVRQAPGQGLEWMGGIYPGDGEINYAQKFQGRVTITADESTSTAYMELSSLRSEDTAVYYCARDDYLRAMDIWGQGTMVTVSS VL: DIQMTQSPSSLSASVGDRVTITCRASGNIHNYLAWYQQKPGKAPKLLLYSAKRLASGVPSRFSGSGSGTDYTLTISSLQPEDFATYYCQHFWSSPYTFGGGTKVEIK" result="< 9.30"
binder="humanized 16H11-derived Fab, VH AK417-17 / VL AK418-2 (Fab, V domains shown, Measured as monovalent Fab; also called No. 2; No. 12) VH: QVQLVQSGAEVKKPGSSVKVSCKASGYDFSNFWMNWVRQAPGQGLEWMGGIYPGDGEINYAQKFQGRVTITADESTSTAYMELSSLRSEDTAVYYCARDDYLRAMDIWGQGTMVTVSS VL: DIQMTQSPSSLSASVGDRVTITCRASGNIHNYLAWYQQKPGKAPKFLLYSAKRLESGVPSRFSGSGSGTDYTLTISSLQPEDFATYYCQHFWSSPYTFGGGTKVEIK" result="9.30 to 9.60"
binder="humanized 16H11-derived Fab, VH AK485-4 / VL AK448-3 (Fab, V domains shown, Measured as monovalent Fab; also called No. 47) VH: QVQLVQSGAEVKKPGSSVKVSCKASGYDFSNFAMNWVRQAPGQGLEWMGQIYPGDGEIKYNQKFQGRVTITADESTSTAYMELSSLRSEDTAVYYCARDDYLRAMDYWGQGTLVTVSS VL: DIQMTQSPSSLSASVGDRVTITCRASQNIHNYLAWYQQKPGKAPKFLLYSAKRLESGVPSRFSGSGSGTDYTLTISSLQPEDFATYYCQHFWSSPYTFGQGTKLEIK" result="< 9.30"
binder="humanized 16H11-derived Fab, VH AK463-2 / VL AK419-2 (Fab, V domains shown, Measured as monovalent Fab; also called No. 38) VH: QVQLVQSGAEVKKPGSSVKVSCKASGYDFSNFWMNWVRQAPGQGLEWMGQIYPGDGEIKYNQKFQGRVTITADESTSTAYMELSSLRSEDTAVYYCARDDYLRAMDYWGQGTLVTVSS VL: DIQMTQSPSSLSASVGDRVTITCRASQNIHNYLAWYQQKPGKAPKFLLYSAKRLESGVPSRFSGSGSGTDYTLTISSLQPEDFATYYCQHFWSSPYTFGGGTKVEIK" result="< 9.30"
binder="humanized 16H11-derived Fab, VH AK410-1 / VL AK418-2 (Fab, V domains shown, Measured as monovalent Fab; also called No. 1; AK410-1/AK418-2) VH: QVQLVQSGAEVKKPGSSVKVSCKASGYDFSNFWMNWVRQAPGQGLEWMGGIYPGDGEINYAQKFQGRVTITADESTSTAYMELSSLRSEDTAVYYCARDDYLRAMDYWGQGTLVTVSS VL: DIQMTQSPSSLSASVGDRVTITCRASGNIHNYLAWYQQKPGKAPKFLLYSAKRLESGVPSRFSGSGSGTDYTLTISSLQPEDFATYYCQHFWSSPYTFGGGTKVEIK" result="9.30 to 9.60"
